Assign AC50 to each entry below.
Biological target: UniProtKB P08588
Sequence (P08588 whole entry): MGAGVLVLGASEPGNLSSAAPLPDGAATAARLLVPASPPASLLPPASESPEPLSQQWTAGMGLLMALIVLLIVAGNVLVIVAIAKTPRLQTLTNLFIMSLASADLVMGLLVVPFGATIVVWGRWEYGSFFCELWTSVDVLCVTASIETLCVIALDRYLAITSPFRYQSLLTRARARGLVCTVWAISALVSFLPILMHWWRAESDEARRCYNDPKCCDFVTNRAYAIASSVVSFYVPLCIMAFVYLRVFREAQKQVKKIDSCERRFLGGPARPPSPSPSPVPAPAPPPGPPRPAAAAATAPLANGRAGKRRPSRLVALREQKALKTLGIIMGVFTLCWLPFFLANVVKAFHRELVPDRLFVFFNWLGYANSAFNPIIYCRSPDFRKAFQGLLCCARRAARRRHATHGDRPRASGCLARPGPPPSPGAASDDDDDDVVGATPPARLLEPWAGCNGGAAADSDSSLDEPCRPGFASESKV
Format: functional

CCC[C@@]1(CCc2ccccc2)CC(O)=C([C@H](CC)c2cccc(NS(=O)(=O)c3ccc(C(F)(F)F)cn3)c2)C(=O)O1 | > 30 µM
CN(C)CCOC(=O)C(c1ccccc1)C1(O)CCCC1 (stereo not given) [CYCLOPENTOLATE] | > 10 µM
Cc1nnc2n1-c1ccc(Cl)cc1C(c1ccccc1)=NC2 | > 10 µM
Cc1ccc(O)c([C@H](CCN(C(C)C)C(C)C)c2ccccc2)c1 | > 10 µM
CCN(CC)C(C)C(=O)c1ccccc1 (stereo not given) | > 10 µM
Cn1cnc2c(F)c(Nc3ccc(Br)cc3F)c(C(=O)NOCCO)cc21 | > 30 µM

Provide each entry's AC50 from the list below.
1. CCOC(=O)C1=C(C)NC(C)=C(C(=O)OC)C1c1cccc(Cl)c1Cl (stereo not given)
2. Cc1cnc(Nc2ccc(OCCN3CCCC3)cc2)nc1Nc1cccc(S(=O)(=O)NC(C)(C)C)c1
3. COc1ccc(-n2nc(C(N)=O)c3c2C(=O)N(c2ccc(N4CCCCC4=O)cc2)CC3)cc1
4. NCC1(CC(=O)O)CCCCC1
5. C[C@@H](Cc1ccccc1)N(C)Cc1ccccc1
6. Oc1cc(O)c2c(c1)O[C@H](c1ccc(O)c(O)c1)[C@@H](O)C2
7. O=C(O)COC(=O)Cc1ccccc1Nc1c(Cl)cccc1Cl

Result string:
1: > 10 µM; 2: > 10 µM; 3: > 30 µM; 4: > 30 µM; 5: > 10 µM; 6: > 10 µM; 7: > 10 µM

State the recorded AC50 for every item in the following list.
1. CCN(CC)CCn1c(=O)c(Cc2ccc(OC)cc2)nc2ccccc21
2. CCC(=O)c1ccc2c(c1)N(CC(C)N(C)C)c1ccccc1S2 (stereo not given)
3. NCCCNCCSP(=O)(O)O
4. CCc1ccc(C(=O)C(C)CN2CCCCC2)cc1 (stereo not given)
5. COc1nc(C)nc(Cl)c1N=C1NCCN1

Result string:
1. > 30 µM
2. > 10 µM
3. > 30 µM
4. > 30 µM
5. > 30 µM

Please look at the items below and tell me AC50 for each one, in order.
1. CC(=O)Oc1ccccc1C(=O)O
2. COc1ccc2c3c1O[C@H]1C(=O)CC[C@H]4[C@@H](C2)N(C)CC[C@]314 [HYDROCODONE]

Result string:
1. > 10 µM
2. > 10 µM

* * *

Target: Alpha-2A adrenergic receptor (Homo sapiens, UniProt P08913); also: assay procedure not described here
Sequence (P08913 whole entry): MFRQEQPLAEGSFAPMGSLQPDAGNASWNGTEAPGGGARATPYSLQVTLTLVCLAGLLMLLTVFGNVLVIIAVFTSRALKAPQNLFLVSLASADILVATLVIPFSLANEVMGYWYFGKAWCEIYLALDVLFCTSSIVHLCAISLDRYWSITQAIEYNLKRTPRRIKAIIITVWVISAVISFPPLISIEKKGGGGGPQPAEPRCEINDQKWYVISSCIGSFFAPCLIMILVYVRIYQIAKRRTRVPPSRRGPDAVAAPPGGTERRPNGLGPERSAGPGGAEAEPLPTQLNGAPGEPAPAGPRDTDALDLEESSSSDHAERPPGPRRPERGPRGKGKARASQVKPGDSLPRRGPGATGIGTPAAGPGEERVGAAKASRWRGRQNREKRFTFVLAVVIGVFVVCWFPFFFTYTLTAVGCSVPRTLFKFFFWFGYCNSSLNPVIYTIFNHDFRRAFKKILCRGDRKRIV
Type: functional, cell-based
measurement.name: AC50

Oc1cc(O)c2c(c1)O[C@H](c1ccc(O)c(O)c1)[C@@H](O)C2 | > 10 µM

Each molecule below has a recorded value; state its AC50.
1. CCN(CC)CCCN(c1ccccc1)C1Cc2ccccc2C1
2. C[C@@H](Cc1ccccc1)N(C)Cc1ccccc1
3. CC(C(=O)O)c1ccc(C(=O)c2ccccc2)s1 (stereo not drawn)

Result string:
1. > 30 µM
2. > 10 µM
3. > 10 µM

// each molecule listed below needs its AC50
1. COc1cccc2c1C(=O)c1c(O)c3c(c(O)c1C2=O)C[C@@](O)(C(=O)CO)C[C@@H]3O[C@H]1C[C@H](N)[C@H](O)[C@H](C)O1
2. CC(=O)Oc1ccccc1C(=O)O
3. O=C(O)CCCC[C@@H]1SC[C@@H]2NC(=O)N[C@@H]21

Result string:
["> 10 µM", "> 10 µM", "> 10 µM"]

// each listed molecule needs a value for AC50
1. COc1ccc2c3c1O[C@H]1C(=O)CC[C@H]4[C@@H](C2)N(C)CC[C@]314 [HYDROCODONE]
2. C[C@H](CS)C(=O)N1CCC[C@H]1C(=O)O
3. N=C(N)NC(=O)c1nc(Cl)c(N)nc1N [AMILORIDE]

Result string:
1. > 10 µM
2. > 10 µM
3. > 30 µM

* * *

Entries with reported AC50 on Mu-type opioid receptor (Homo sapiens)
Sequence (P35372 whole entry): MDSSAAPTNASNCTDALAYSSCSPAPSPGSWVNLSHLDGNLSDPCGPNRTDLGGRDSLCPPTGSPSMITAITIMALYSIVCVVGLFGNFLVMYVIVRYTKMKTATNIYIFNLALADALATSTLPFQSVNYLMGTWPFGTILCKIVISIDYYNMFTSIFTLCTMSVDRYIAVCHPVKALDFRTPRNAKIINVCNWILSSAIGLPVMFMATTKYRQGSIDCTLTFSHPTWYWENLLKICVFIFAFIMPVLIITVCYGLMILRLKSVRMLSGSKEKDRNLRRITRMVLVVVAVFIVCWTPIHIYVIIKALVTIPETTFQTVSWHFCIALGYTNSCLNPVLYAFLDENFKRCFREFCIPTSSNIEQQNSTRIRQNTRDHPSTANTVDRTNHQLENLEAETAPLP

List reported AC50 for each of these compounds:
1. O=C1Nc2ccccc2C1(c1ccc(O)cc1)c1ccc(O)cc1 [OXYPHENISATINE]
2. Cc1cccc(C)c1NC(=O)CN(CC(=O)O)CC(=O)O [LIDOFENIN]

Result string:
1: > 30 µM; 2: > 30 µM

Report AC50 for each item below.
1. O=NN(CCCl)C(=O)NC1CCCCC1 [LOMUSTINE]
2. O=c1[nH]cc(F)c(=O)[nH]1 [FLUOROURACIL]
3. CC(NCCC(c1ccccc1)c1ccccc1)c1ccccc1 (centres undefined) [FENDILINE]
4. COC(=O)Nc1nc2cc(C(=O)c3ccc(F)cc3)ccc2[nH]1 [FLUBENDAZOLE]
5. Cc1cnc(C(=O)O)c[n+]1[O-] [ACIPIMOX]
6. CC(C)N1CCOC(c2cccc(C(F)(F)F)c2)C1 (centres undefined) [OXAFLOZANE]

Result string:
1. > 30 µM
2. > 30 µM
3. 0.721 µM
4. > 30 µM
5. > 30 µM
6. > 30 µM

Give AC50 for all compounds that follow.
1. C[C@@H]1O[C@@H](O[C@H]2C[C@@H](O)[C@]3(CO)[C@H]4[C@H](O)C[C@]5(C)[C@@H](C6=CC(=O)OC6)CC[C@]5(O)[C@@H]4CC[C@]3(O)C2)[C@H](O)[C@H](O)[C@H]1O [OUABAIN]
2. COCC(=O)O[C@]1(CCN(C)CCCc2nc3ccccc3[nH]2)CCc2cc(F)ccc2[C@@H]1C(C)C [MIBEFRADIL]
3. Cc1cn(-c2cc(NC(=O)c3ccc(C)c(Nc4nccc(-c5cnccn5)n4)c3)cc(C(F)(F)F)c2)cn1 [RADOTINIB]
4. Cc1ccc(Cl)c(Nc2ccccc2C(=O)O)c1Cl [MECLOFENAMIC ACID]
5. CC#CC(=O)N1CCC[C@H]1c1nc(-c2ccc(C(=O)Nc3ccccn3)cc2)c2c(N)nccn12 [ACALABRUTINIB]

Result string:
["> 30 µM", "0.979 µM", "> 3 µM", "> 30 µM", "> 30 µM"]

Please state, for each entry, its recorded AC50.
1. O=C(O)[C@H](O)[C@@H](O)[C@H](O)[C@H](O)CO [GLUCONIC ACID]
2. N=C(N)NCC1COc2ccccc2O1 (centres undefined) [GUANOXAN]

Result string:
> 30 µM
> 30 µM

Need AC50 for each of these compounds.
1. C[C@H](Nc1ncnc2[nH]cnc12)c1cc2cccc(Cl)c2c(=O)n1-c1ccccc1 [DUVELISIB]
2. CC(C)Nc1cccnc1N1CCN(C(=O)c2cc3cc(NS(C)(=O)=O)ccc3[nH]2)CC1 [DELAVIRDINE]
3. CCOC(=O)[C@H](CCc1ccccc1)N[C@@H](C)C(=O)N1Cc2ccccc2C[C@H]1C(=O)O
4. CC(C)NC[C@H](O)COc1ccc(CCOCC2CC2)cc1 [LEVOBETAXOLOL]

Result string:
> 30 µM
13.9 µM
> 30 µM
> 30 µM

Give AC50 for all compounds that follow.
1. CNC(=O)c1cnn(-c2nc(N)c3ncn([C@@H]4O[C@H](CO)[C@@H](O)[C@H]4O)c3n2)c1 [REGADENOSON ANHYDROUS]
2. O=C1[C@@H]2[C@H]3CC[C@H](C3)[C@@H]2C(=O)N1C[C@@H]1CCCC[C@H]1CN1CCN(c2nsc3ccccc23)CC1 [LURASIDONE]
3. COC(=O)N[C@H](C(=O)N1CC2(CC2)C[C@H]1c1ncc(-c2ccc3c(c2)C(F)(F)c2cc(-c4ccc5nc([C@@H]6[C@H]7CC[C@H](C7)N6C(=O)[C@@H](NC(=O)OC)C(C)C)[nH]c5c4)ccc2-3)[nH]1)C(C)C
4. CCCCC(=O)O[C@H]1CC[C@H]2[C@@H]3CCc4cc(O)ccc4[C@H]3CC[C@]12C [ESTRADIOL VALERATE]
5. Cc1c(C(C)C)c(=O)n(-c2ccccc2)n1C [PROPYPHENAZONE]

Result string:
1: > 30 µM; 2: > 10 µM; 3: > 30 µM; 4: > 30 µM; 5: > 30 µM

Please supply AC50 for each of the following items, keeping them in order.
1. COC(=O)N(C)c1c(N)nc(-c2nn(Cc3ccccc3F)c3ncccc23)nc1N [RIOCIGUAT]
2. N[C@@H](Cc1ccc(O)cc1)C(=O)O [TYROSINE]
3. CC(=O)Oc1ccccc1C(=O)O [ASPIRIN]
4. Cc1c(C)c2c(c(C)c1O)CCC(C)(COc1ccc(CC3SC(=O)NC3=O)cc1)O2 (centres undefined) [TROGLITAZONE]

Result string:
1: > 30 µM; 2: > 30 µM; 3: > 30 µM; 4: 14 µM

Go through the list and state AC50 for each entry.
1. CC1=C(C/C=C(\C)CCC[C@H](C)CCC[C@H](C)CCCC(C)C)C(=O)c2ccccc2C1=O [PHYTONADIONE]
2. CCCCCCCC/C=C\CCCCCCCC(=O)O [OLEIC ACID]

Result string:
1. > 30 µM
2. > 30 µM
